TGT: Solute carrier organic anion transporter family member 1B1 (OATP1B1) (Homo sapiens, UniProt Q9Y6L6)
Sequence (Q9Y6L6 whole entry): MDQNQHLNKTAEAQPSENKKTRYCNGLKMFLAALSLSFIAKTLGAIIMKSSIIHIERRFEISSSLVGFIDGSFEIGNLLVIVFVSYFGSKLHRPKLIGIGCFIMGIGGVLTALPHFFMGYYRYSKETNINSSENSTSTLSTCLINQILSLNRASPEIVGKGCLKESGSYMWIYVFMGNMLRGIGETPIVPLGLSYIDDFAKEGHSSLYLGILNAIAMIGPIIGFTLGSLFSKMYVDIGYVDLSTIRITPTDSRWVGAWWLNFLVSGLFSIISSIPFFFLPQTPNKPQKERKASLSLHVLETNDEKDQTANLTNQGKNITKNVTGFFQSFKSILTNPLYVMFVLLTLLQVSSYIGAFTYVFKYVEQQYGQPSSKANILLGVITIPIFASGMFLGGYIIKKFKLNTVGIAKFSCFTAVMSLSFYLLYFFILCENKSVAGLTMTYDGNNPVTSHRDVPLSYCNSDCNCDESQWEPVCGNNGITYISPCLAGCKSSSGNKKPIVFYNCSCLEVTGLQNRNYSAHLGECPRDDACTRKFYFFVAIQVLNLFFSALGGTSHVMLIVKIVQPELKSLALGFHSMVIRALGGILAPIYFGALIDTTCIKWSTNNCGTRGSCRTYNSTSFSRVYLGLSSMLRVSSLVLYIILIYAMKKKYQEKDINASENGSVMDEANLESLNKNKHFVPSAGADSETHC
METHOD_DESCRIPTION: TP_TRANSPORTER: inhibition of E1S uptake (E1S: 0.004 uM, DADLE: 1000 uM) in Xenopus laevis oocytes
Assay type: functional, cell-based, Oocyte
Parameters: scale not given: the % may be the effect or the level left
PARTICULARS: probe E1S (0.004 uM), read-out: Activity
MEASURED_PARAMETER: activity at 1000 µM (%)
Form entry: value (%) — number only.

### Prompt Suppose we examine the compound CC(C)C[C@@H](NC(=O)[C@H](Cc1ccccc1)NC(=O)CNC(=O)[C@@H](C)NC(=O)[C@@H](N)Cc1ccc(O)cc1)C(=O)O [DADLE] ; what activity at 1000 µM value has been reported?
### Response 35.4
